# assayedTarget: recombinant mouse transferrin receptor (TfR) protein (mouse) (UniProt Q62351)
# Sequence (Q62351 whole entry): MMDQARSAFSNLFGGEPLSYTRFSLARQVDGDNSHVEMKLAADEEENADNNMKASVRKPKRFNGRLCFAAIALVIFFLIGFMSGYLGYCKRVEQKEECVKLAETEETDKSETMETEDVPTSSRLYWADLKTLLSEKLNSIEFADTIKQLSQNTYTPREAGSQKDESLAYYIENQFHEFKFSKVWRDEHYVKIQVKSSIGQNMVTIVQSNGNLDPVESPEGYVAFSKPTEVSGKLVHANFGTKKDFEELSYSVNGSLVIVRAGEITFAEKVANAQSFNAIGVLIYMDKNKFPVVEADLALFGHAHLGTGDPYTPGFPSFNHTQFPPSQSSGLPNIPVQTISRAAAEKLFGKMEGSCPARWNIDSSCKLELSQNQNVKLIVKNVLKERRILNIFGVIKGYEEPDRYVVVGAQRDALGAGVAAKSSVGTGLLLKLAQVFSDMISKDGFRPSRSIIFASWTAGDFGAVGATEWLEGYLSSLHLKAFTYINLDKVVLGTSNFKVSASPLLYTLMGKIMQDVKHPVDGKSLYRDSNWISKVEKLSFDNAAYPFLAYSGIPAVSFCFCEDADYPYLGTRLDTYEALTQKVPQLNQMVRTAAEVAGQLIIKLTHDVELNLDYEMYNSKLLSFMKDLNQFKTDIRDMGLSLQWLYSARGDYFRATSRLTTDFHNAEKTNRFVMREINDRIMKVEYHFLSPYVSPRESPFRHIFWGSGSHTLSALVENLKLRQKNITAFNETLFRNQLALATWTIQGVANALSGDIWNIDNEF
# assayNotes: SPR; Biacore 3000, CM5 chip, receptors immobilised by EDC/NHS coupling (TfR 58 fmol/mm^2, LRP-1 0.025 fmol/mm^2); peptides injected at 0.25-4 uM, 5 uL/min, 25°C, 10 mM HEPES, 150 mM NaCl, 1.5 mM CaCl2, 1 mM EGTA, 0.005% Tween 20, pH 7.4; Langmuir 1:1 model, global fit
pKd: −log10 of the molar value. Ends that are not written are not given here.
measuredProperty: pKd

{"columns": ["binder", "measuredProperty", "observedMeasurement"],
 "data": [
  ["GYRPVHNIRGHWAPGK-NH2 [GYR (peptide 2)]", "pKd", 3.00]
]}

Hey, just so you know, these numbers are from paper PMC8018780.
